Values were extracted from PubChem BioAssay (NCATS).

System: 3D7
Test: qHTS profiling for inhibitors of Plasmodium falciparum proliferation (AID 504749); also: nearly all actives have a fitted effect of over 60% in size
Conditions: P. falciparum in erythrocytes, SYBR Green DNA, 72 h; series mostly up to 28.7 µM
Results filed as inconclusive are left out. The source made the active and inactive calls. Calls follow the shape of the dose curve; as a rule, active = well fitted inhibition curve with a large enough effect; inconclusive = small, poorly fitted or top-dose-only effect; inactive = flat fitted curve, though single readings scatter.
Tick one outcome: y = active, n = inactive

The examples below pair each entry with its known result.
- compound: "CN1C(=O)OC(C)(C)C1=O"
  tested_system: "3D7"
  category: "n"
- compound: "CCCCCc1ccc(C)cc1O"
  tested_system: "3D7"
  category: "n"
- compound: "CCCCC(CC)COS(=O)(=O)O (stereo unspecified)"
  tested_system: "3D7"
  category: "n"
- compound: "O=C(CCCCCCCCCCCCC1CCCC1)Nc1ccc(S(=O)(=O)c2ccc(NC(=O)CCCCCCCCCCCCC3CCCC3)cc2)cc1"
  tested_system: "3D7"
  category: "n"
- compound: "CC(=O)N=c1sc(S(N)(=O)=O)nn1C"
  tested_system: "3D7"
  category: "n"

Hello, I am checking results. What call was entered for OC[C@H]1O[C@@](CO)(O[C@H]2O[C@H](CO)[C@@H](O)[C@H](O)[C@H]2O)[C@@H](O)[C@@H]1O ?
n

Hello, I am checking results. What call was entered for CC/C=C\C/C=C\C/C=C\C/C=C\C/C=C\C/C=C\CCC(=O)O ?
n

Hello, I am checking results. What call was entered for NCCN ?
n

Hello, I am checking results. What call was entered for C/C=C/C=C/C(=O)O ?
n

Hello, I am checking results. What call was entered for CN(C)C=Nc1c(I)cc(I)c(CCC(=O)O)c1I ?
n

Hello, I am checking results. What call was entered for CC(C)CCC[C@@H](C)[C@H]1CC[C@H]2[C@@H]3CC[C@@H]4C[C@H](O)CC[C@]4(C)[C@H]3CC[C@]12C ?
n

Hello, I am checking results. What call was entered for CC1=CC(=O)NS(=O)(=O)O1 ?
n

Hello, I am checking results. What call was entered for O=C(Nc1ccc(O)cc1)c1ccccc1O ?
n

Hello, I am checking results. What call was entered for S=C1SCN(Cc2ccccc2)CN1Cc1ccccc1 ?
n

Hello, I am checking results. What call was entered for O=C(O)/C=C/c1ccccc1 ?
n

Hello, I am checking results. What call was entered for Cc1ncc(C[n+]2csc(CCO)c2C)c(N)n1 ?
n

###

System: PC15
Assay: qHTS profiling for inhibitors of Plasmodium falciparum proliferation (AID 504749); also: nearly all actives have a fitted effect of over 60% in size
Settings: P. falciparum in erythrocytes, SYBR Green DNA, 72 h; series mostly up to 28.7 µM
Results filed as inconclusive are left out. Calls of active or inactive are those of the source. Calls come from the whole dose curve; as a rule, active = well fitted inhibition curve with a large enough effect; inconclusive = small, poorly fitted or top-dose-only effect; inactive = flat fitted curve, though single readings scatter.
Tick one outcome: true = active, false = inactive

The examples below pair each entry with its known result.
- compound: "COc1ccc2c(=O)c(C)c(-c3ccccc3)oc2c1CN(C)C"
  tested_system: "PC15"
  category: "false"
- compound: "CCCCCCCCCCCCCCCCCCCCCC(=O)Nc1ccn([C@@H]2O[C@H](CO)[C@@H](O)[C@@H]2O)c(=O)n1"
  tested_system: "PC15"
  category: "false"
- compound: "CCCCC(CC)CCC(CC(C)C)OS(=O)(=O)O (stereo not given)"
  tested_system: "PC15"
  category: "false"
- compound: "COc1ccc(C(=O)c2ccc(C)cc2)c(O)c1"
  tested_system: "PC15"
  category: "false"
- compound: "O=S(=O)(O)CCCS(=O)(=O)O"
  tested_system: "PC15"
  category: "false"
- compound: "CC/C=C\\C/C=C\\C/C=C\\CCCCCCCC(=O)O"
  tested_system: "PC15"
  category: "false"
- compound: "CC(=O)Oc1cccc(C(=O)O)c1OC(C)=O"
  tested_system: "PC15"
  category: "false"
- compound: "CN=C1C=CC(=C(c2ccc(N(C)C)cc2)c2ccc(N(C)C)cc2)C=C1"
  tested_system: "PC15"
  category: "true"
- compound: "O=C(OCc1ccccc1)c1ccc(O)cc1"
  tested_system: "PC15"
  category: "false"
- compound: "CCC(O)c1ccccc1 (stereo not given)"
  tested_system: "PC15"
  category: "false"

Hello, I am checking results. What call was entered for COc1ccccc1N1CCN(CCCC(=O)c2ccc(F)cc2)CC1 ?
false

Hello, I am checking results. What call was entered for Cc1ncc(C[n+]2csc(CCO)c2C)c(N)n1 ?
false

###

Test system: CP262
Assay: qHTS profiling for inhibitors of Plasmodium falciparum proliferation (AID 504749); also: nearly all actives have a fitted effect of over 60% in size
Conditions: P. falciparum in erythrocytes, SYBR Green DNA, 72 h; series mostly up to 28.7 µM
Inconclusive results are not listed. Active and inactive are the calls of the source. Calls come from the whole dose curve; as a rule, active = well fitted inhibition curve with a large enough effect; inconclusive = small, poorly fitted or top-dose-only effect; inactive = flat fitted curve, though single readings scatter.
Tick one outcome: label 1 (active), label 0 (inactive)

The examples below pair each entry with its known result.
- compound: "CCOC(=S)SSC(=S)OCC"
  category: "label 0"
- compound: "Cc1cccc(C)c1NC(=O)C1CCCCN1C (stereo not given)"
  category: "label 0"
- compound: "C[C@H]1O[C@@H](O[C@H]2[C@@H](O)C[C@H](O[C@H]3[C@@H](O)C[C@H](O[C@H]4CC[C@@]5(C)[C@H](CC[C@@H]6[C@@H]5C[C@@H](O)[C@]5(C)[C@@H](C7=CC(=O)OC7)CC[C@]65O)C4)O[C@@H]3C)O[C@@H]2C)C[C@H](O)[C@@H]1O"
  category: "label 0"

Hello, I am checking results. What call was entered for C=C(C)C1CC=C(C)CC1 (stereo not given) ?
label 0

Hello, I am checking results. What call was entered for CC1CC(OC(=O)C(O)c2ccccc2)CC(C)(C)C1 (stereo not given) ?
label 0

Hello, I am checking results. What call was entered for COc1cc(NCCCC(C)N)c2ncccc2c1 (stereo not given) ?
label 1

Hello, I am checking results. What call was entered for O=C(/C=C/c1cccc(F)c1)NC1CC1 ?
label 0

Hello, I am checking results. What call was entered for COC1=C(OC)C(=O)C(C/C=C(\C)CC/C=C(\C)CC/C=C(\C)CC/C=C(\C)CC/C=C(\C)CC/C=C(\C)CC/C=C(\C)CC/C=C(\C)CC/C=C(\C)CCC=C(C)C)=C(C)C1=O ?
label 0

Hello, I am checking results. What call was entered for CO/N=C(/C(=O)N[C@@H]1C(=O)N2C(C(=O)O)=C(COC(N)=O)CS[C@H]12)c1ccco1 ?
label 0

###

Reported activity, negative = cell killing is given for each of the following compounds.
Assay: Drug repurposing screens with cells derived from glioblastoma tumor samples (AID 1345199); also: % is scaled to controls: 0 for no effect and ±100 for the full control effect; nearly all actives have a fitted effect of over 40% in size
Conditions: GBM patient neurospheres viability, ATP luminescence, 48 h; at 46 µM (top of the series); tumour line A
Records with an inconclusive call do not appear.
The reply should be a number in %, with the unit left off.

Consider the compound O=C(O)CCC/C=C\C[C@@H]1[C@@H](/C=C/[C@@H](O)COc2cccc(C(F)(F)F)c2)[C@H](O)C[C@@H]1O . State its measured activity, negative = cell killing.
-17.8

Consider the compound CCCCCCCCCCCCCCCCCC(=O)OCC(C)O (stereo not given) . State its measured activity, negative = cell killing.
-14.9

Consider the compound NCC(O)CC(=O)O (stereo not given) . State its measured activity, negative = cell killing.
-5.53

###

Test system: PC26
Assay: qHTS profiling for inhibitors of Plasmodium falciparum proliferation (AID 504749); also: nearly all actives have a fitted effect of over 60% in size
Conditions: P. falciparum in erythrocytes, SYBR Green DNA, 72 h; series mostly up to 28.7 µM
Results filed as inconclusive are left out. Calls of active or inactive are those of the source. Calls come from the whole dose curve; as a rule, active = well fitted inhibition curve with a large enough effect; inconclusive = small, poorly fitted or top-dose-only effect; inactive = flat fitted curve, though single readings scatter.
Tick one outcome: label 1 = active, label 0 = inactive

The examples below pair each entry with its known result.
- molecule: "ClC(Cl)Cl"
  category: "label 0"
- molecule: "O=C(Nc1ccc(O)cc1)c1ccccc1O"
  category: "label 0"
- molecule: "CCCC(=O)O"
  category: "label 0"
- molecule: "O=C(NCCNCC(O)COc1ccc(O)cc1)N1CCOCC1 (stereo not given)"
  category: "label 0"
- molecule: "COc1ccc(/C=C/C(=O)OCCC(C)C)cc1"
  category: "label 0"

Hello, I am checking results. What call was entered for O=S(=O)(O)CCCS(=O)(=O)O ?
label 0

Hello, I am checking results. What call was entered for CCCOc1cc(N)ccc1C(=O)OCCN(CC)CC ?
label 0

Hello, I am checking results. What call was entered for CC(C)(C)CC(C)(C)c1cc(Cc2cc(C(C)(C)CC(C)(C)C)cc(-n3nc4ccccc4n3)c2O)c(O)c(-n2nc3ccccc3n2)c1 ?
label 0

Hello, I am checking results. What call was entered for O=C(O)/C=C/c1ccccc1 ?
label 0

Hello, I am checking results. What call was entered for O=[N+]([O-])c1c(Cl)cccc1-c1c[nH]cc1Cl ?
label 0

Hello, I am checking results. What call was entered for CC(C)Cc1ccc([C@@H](C)C(=O)NS(C)(=O)=O)cc1 ?
label 0

Hello, I am checking results. What call was entered for CC(CCc1ccc(O)cc1)NCC(O)c1ccc(O)cc1 (stereo not given) ?
label 0

Hello, I am checking results. What call was entered for Cc1ccc(S(=O)(=O)O)cc1C ?
label 0
